Tested on: 695427-040-R-J1-PDC complex spheroids, viability percent T/C
protocol summary: Anticancer human tumor 695427-040-R-J1-PDC patient-derived colon adenocarcinoma cell line growth inhibition [GQUAD]
run conditions: second compound 3.16 µM; first compound 1 µM; hits give low values
measured quantity: viability, T/C (%)

INSERT INTO assay_data (molecule, reported) VALUES
  ('COc1cccc2c1C(=O)c1c(O)c3c(c(O)c1C2=O)CC(O)(C(=O)CO)CC3OC1CC(N)C(O)C(C)O1 (stereo not given) + CN(C)c1ccc(Nc2c3ccc(NC(=O)CCN4CCCC4)cc3nc3cc(NC(=O)CCN4CCCC4)ccc23)cc1', 77.9),
  ('COc1ncnc(C2CC2)c1-c1ncc2cnn(Cc3ccc(-c4nc(C(F)(F)F)cn4C(C)C)cc3)c2n1 + Cc1[nH]c2ccc(F)cc2c1-c1nc2c3cccnc3c3ncccc3c2[nH]1', 80.1),
  ('CC(C)n1c(=O)n(C)c2cnc3cc(F)c(-c4ccc(OCCCN5CCCCC5)nc4)cc3c21 + Cc1cnc(CNC(=O)c2c(=O)c3ccc(N4CCCN(C)CC4)nc3n3c2sc2ccccc23)cn1', 54.6),
  ('CC1COCCN1c1cc(C2(S(C)(=N)=O)CC2)nc(-c2ccnc3[nH]ccc23)n1 (stereo not given) + Cc1cnc(CNC(=O)c2c(=O)c3ccc(N4CCCN(C)CC4)nc3n3c2sc2ccccc23)cn1', 49.4),
  ('COc1cccc2c1C(=O)c1c(O)c3c(c(O)c1C2=O)CC(O)(C(=O)CO)CC3OC1CC(N)C(O)C(C)O1 (stereo not given) + Cc1cnc(CNC(=O)c2c(=O)c3ccc(N4CCCN(C)CC4)nc3n3c2sc2ccccc23)cn1', 28.1);

###

Tested on: 695427-040-R-J1-PDC complex spheroids, viability percent T/C
protocol summary: Anticancer human tumor 695427-040-R-J1-PDC cell line growth inhibition [GQUAD];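 note: spheroids exposed to compounds for seven days before readout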
run conditions: second compound 0.316 µM; first compound 1 µM; hits give low values
measured quantity: viability, T/C (%)

INSERT INTO assay_data (molecule, assay_target, reported) VALUES
  ('CC(C)(O)C1CCC(Nc2ccc3ncc(-c4cccc(C(F)(F)F)c4)n3n2)CC1 (stereo not given) + CN(C)c1ccc(Nc2c3ccc(NC(=O)CCN4CCCC4)cc3nc3cc(NC(=O)CCN4CCCC4)ccc23)cc1', '695427-040-R-J1-PDC complex spheroids, viability percent T/C', 74),
  ('CC1COCCN1c1cc(C2(S(C)(=N)=O)CC2)nc(-c2ccnc3[nH]ccc23)n1 (stereo not given) + Cc1cnc(CNC(=O)c2c(=O)c3ccc(N4CCCN(C)CC4)nc3n3c2sc2ccccc23)cn1', '695427-040-R-J1-PDC complex spheroids, viability percent T/C', 66.1),
  ('C#Cc1c(F)ccc2cc(O)cc(-c3ncc4c(N5CC6CCC(C5)N6)nc(OCC56CCCN5CC(F)C6)nc4c3F)c12 (stereo not given) + Cc1[nH]c2ccc(F)cc2c1-c1nc2c3cccnc3c3ncccc3c2[nH]1', '695427-040-R-J1-PDC complex spheroids, viability percent T/C', 55.7),
  ('O=C(c1cc(Cc2n[nH]c(=O)c3ccccc23)ccc1F)N1CCN(C(=O)C2CC2)CC1 + Cc1[nH]c2ccc(F)cc2c1-c1nc2c3cccnc3c3ncccc3c2[nH]1', '695427-040-R-J1-PDC complex spheroids, viability percent T/C', 91.1),
  ('C=CCn1c(=O)c2cnc(Nc3ccc(N4CCN(C)CC4)cc3)nc2n1-c1cccc(C(C)(C)O)n1 + Cc1[nH]c2ccc(F)cc2c1-c1nc2c3cccnc3c3ncccc3c2[nH]1', '695427-040-R-J1-PDC complex spheroids, viability percent T/C', 97.2);

###

viability, T/C overview
Tested on: 695427-040-R-J1-PDC complex spheroids, viability percent T/C
protocol summary: Anticancer human tumor 695427-040-R-J1-PDC cell line growth inhibition [GQUAD];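 note: spheroids exposed to compounds for seven days before readout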
run conditions: second compound 0.1 µM; first compound 0.0316 µM; hits give low values
Source text: DNA G-quadruplex Stabilizer Agents in Combinations in Complex Spheroids A high-throughput screen of multi-cell type tumor spheroids was designed to identify active combinations of DNA G-quadruplex stabilizer agents and targeted small molecules. […] Compounds. […] If the clinical Cmax for an agent had not been determined, the highest concentration tested was 10 microM. […]
measured quantity: viability, T/C (%)

INSERT INTO assay_data (compound, measured_quantity, reported) VALUES
  ('CCc1c2c(nc3ccc(O)cc13)-c1cc3c(c(=O)n1C2)COC(=O)[C@]3(O)CC + CN(C)c1ccc(Nc2c3ccc(NC(=O)CCN4CCCC4)cc3nc3cc(NC(=O)CCN4CCCC4)ccc23)cc1', 'viability, T/C', 73.2),
  ('O=C(c1cc(Cc2n[nH]c(=O)c3ccccc23)ccc1F)N1CCN(C(=O)C2CC2)CC1 + Cc1[nH]c2ccc(F)cc2c1-c1nc2c3cccnc3c3ncccc3c2[nH]1', 'viability, T/C', 114),
  ('CC1COCCN1c1cc(-c2ccnn2C)c2ccnc(-c3ccn[nH]3)c2n1 (stereo not given) + CN(C)c1ccc(Nc2c3ccc(NC(=O)CCN4CCCC4)cc3nc3cc(NC(=O)CCN4CCCC4)ccc23)cc1', 'viability, T/C', 100),
  ('Cc1[nH]c2ccccc2c1CCNCc1ccc(/C=C/C(=O)NO)cc1 + CN(C)c1ccc(Nc2c3ccc(NC(=O)CCN4CCCC4)cc3nc3cc(NC(=O)CCN4CCCC4)ccc23)cc1', 'viability, T/C', 99.3),
  ('C#Cc1c(F)ccc2cc(O)cc(-c3ncc4c(N5CC6CCC(C5)N6)nc(OCC56CCCN5CC(F)C6)nc4c3F)c12 (stereo not given) + Cc1cnc(CNC(=O)c2c(=O)c3ccc(N4CCCN(C)CC4)nc3n3c2sc2ccccc23)cn1', 'viability, T/C', 110),
  ('CC(=O)O[C@H]1C(=O)[C@@]2(C)[C@H]([C@H](OC(=O)c3ccccc3)[C@]3(O)C[C@H](OC(=O)[C@H](O)[C@@H](NC(=O)c4ccccc4)c4ccccc4)C(C)=C1C3(C)C)[C@]1(OC(C)=O)CO[C@@H]1C[C@@H]2O + CN(C)c1ccc(Nc2c3ccc(NC(=O)CCN4CCCC4)cc3nc3cc(NC(=O)CCN4CCCC4)ccc23)cc1', 'viability, T/C', 98.5),
  ('C=CC(=O)N1CCN(c2nc(=O)n(-c3c(C)ccnc3C(C)C)c3nc(-c4c(O)cccc4F)c(F)cc23)C(C)C1 (stereo not given) + CN(C)c1ccc(Nc2c3ccc(NC(=O)CCN4CCCC4)cc3nc3cc(NC(=O)CCN4CCCC4)ccc23)cc1', 'viability, T/C', 104),
  ('CCCS(=O)(=O)Nc1ccc(F)c(C(=O)c2c[nH]c3ncc(-c4ccc(Cl)cc4)cc23)c1F + Cc1cnc(CNC(=O)c2c(=O)c3ccc(N4CCCN(C)CC4)nc3n3c2sc2ccccc23)cn1', 'viability, T/C', 105),
  ('COc1cc(C2c3cc4c(cc3C(OC3OC5COC(C)OC5C(O)C3O)C3COC(=O)C23)OCO4)cc(OC)c1O (stereo not given) + CN(C)c1ccc(Nc2c3ccc(NC(=O)CCN4CCCC4)cc3nc3cc(NC(=O)CCN4CCCC4)ccc23)cc1', 'viability, T/C', 88.1),
  ('C=CCn1c(=O)c2cnc(Nc3ccc(N4CCN(C)CC4)cc3)nc2n1-c1cccc(C(C)(C)O)n1 + Cc1[nH]c2ccc(F)cc2c1-c1nc2c3cccnc3c3ncccc3c2[nH]1', 'viability, T/C', 114),
  ('C=CC(=O)N1CCN(c2nc(=O)n(-c3c(C)ccnc3C(C)C)c3nc(-c4c(O)cccc4F)c(F)cc23)C(C)C1 (stereo not given) + Cc1[nH]c2ccc(F)cc2c1-c1nc2c3cccnc3c3ncccc3c2[nH]1', 'viability, T/C', 101),
  ('CC[C@@]1(O)C(=O)OCc2c1cc1n(c2=O)Cc2cc3c(CN(C)C)c(O)ccc3nc2-1 + Cc1cnc(CNC(=O)c2c(=O)c3ccc(N4CCCN(C)CC4)nc3n3c2sc2ccccc23)cn1', 'viability, T/C', 67.7),
  ('Nc1ccn(C2OC(CO)C(O)C2(F)F)c(=O)n1 (stereo not given) + Cc1cnc(CNC(=O)c2c(=O)c3ccc(N4CCCN(C)CC4)nc3n3c2sc2ccccc23)cn1', 'viability, T/C', 93.8),
  ('O=c1[nH]cc(F)c(=O)[nH]1 + Cc1[nH]c2ccc(F)cc2c1-c1nc2c3cccnc3c3ncccc3c2[nH]1', 'viability, T/C', 98.4),
  ('C=CC(=O)N1CCN(c2nc(=O)n(-c3c(C)ccnc3C(C)C)c3nc(-c4c(O)cccc4F)c(F)cc23)C(C)C1 (stereo not given) + Cc1cnc(CNC(=O)c2c(=O)c3ccc(N4CCCN(C)CC4)nc3n3c2sc2ccccc23)cn1', 'viability, T/C', 89.2),
  ('CC1COCCN1c1cc(C2(O)CC3CCC(C2)O3)c2cnn(-c3ccn[nH]3)c2n1 (stereo not given) + Cc1[nH]c2ccc(F)cc2c1-c1nc2c3cccnc3c3ncccc3c2[nH]1', 'viability, T/C', 93.8),
  ('CC1COCCN1c1cc(-c2ccnn2C)c2ccnc(-c3ccn[nH]3)c2n1 (stereo not given) + Cc1[nH]c2ccc(F)cc2c1-c1nc2c3cccnc3c3ncccc3c2[nH]1', 'viability, T/C', 91.9),
  ('CC(=O)O[C@H]1C(=O)[C@@]2(C)[C@H]([C@H](OC(=O)c3ccccc3)[C@]3(O)C[C@H](OC(=O)[C@H](O)[C@@H](NC(=O)c4ccccc4)c4ccccc4)C(C)=C1C3(C)C)[C@]1(OC(C)=O)CO[C@@H]1C[C@@H]2O + Cc1[nH]c2ccc(F)cc2c1-c1nc2c3cccnc3c3ncccc3c2[nH]1', 'viability, T/C', 103),
  ('CC(C)(O)C1CCC(Nc2ccc3ncc(-c4cccc(C(F)(F)F)c4)n3n2)CC1 (stereo not given) + Cc1cnc(CNC(=O)c2c(=O)c3ccc(N4CCCN(C)CC4)nc3n3c2sc2ccccc23)cn1', 'viability, T/C', 86.5),
  ('CCc1c2c(nc3ccc(O)cc13)-c1cc3c(c(=O)n1C2)COC(=O)[C@]3(O)CC + Cc1cnc(CNC(=O)c2c(=O)c3ccc(N4CCCN(C)CC4)nc3n3c2sc2ccccc23)cn1', 'viability, T/C', 47.5);
